Experimental Target: human MCH-1 receptor (Homo sapiens, UniProt Q99705)
Construct: expressed in transfected cells
Sequence (Q99705 whole entry): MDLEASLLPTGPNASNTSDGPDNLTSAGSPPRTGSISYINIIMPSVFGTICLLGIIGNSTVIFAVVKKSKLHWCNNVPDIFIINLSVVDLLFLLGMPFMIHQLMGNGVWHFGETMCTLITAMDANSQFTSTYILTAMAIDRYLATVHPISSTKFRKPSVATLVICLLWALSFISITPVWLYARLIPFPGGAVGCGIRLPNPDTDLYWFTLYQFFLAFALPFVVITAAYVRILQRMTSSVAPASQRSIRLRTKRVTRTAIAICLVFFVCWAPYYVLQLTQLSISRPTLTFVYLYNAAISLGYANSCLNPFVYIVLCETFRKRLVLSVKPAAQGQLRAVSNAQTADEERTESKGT
Method Summary: Ca2+ mobilization experiment for the MCH-1 receptor (FLIPR), inhibition of MCH-induced Ca2+ mobilization
Format: cell-based
Measurement Parameters: CHO cells stably expressing human MCH-1 receptor, inhibition of MCH-induced Ca2+ response, read-out: MCH-1 pIC50 (converted)
Outcome Measure: log10 IC50 (log10 of the value in nM)

{"columns": ["Molecule", "Experimental Target", "Outcome Measure", "Reported Measurement"],
 "data": [
  ["CN(C(=O)OC(C)(C)C)C1CCN(c2ccc(-n3ccnc(NCCc4ccccc4)c3=O)cc2)C1 (stereo not shown) [3-05]", "human MCH-1 receptor (Homo sapiens, UniProt Q99705)", "log10 IC50", 2.20],
  ["COc1cc(-n2ccnc(SCCc3ccccc3)c2=O)ccc1N1CCC(O)CC1 [6-11]", "human MCH-1 receptor (Homo sapiens, UniProt Q99705)", "log10 IC50", 2.10],
  ["COc1cc(-n2ccnc(SCCc3ccccc3)c2=O)ccc1NC(=O)CN1CCCC1 [6-18]", "human MCH-1 receptor (Homo sapiens, UniProt Q99705)", "log10 IC50", 2.50],
  ["O=c1c(NCCOc2ccccc2)nccn1-c1ccc(OCCN2CCN(c3ccccc3)CC2)cc1 [1-45]", "human MCH-1 receptor (Homo sapiens, UniProt Q99705)", "log10 IC50", 2.90],
  ["COc1cc(-n2ccnc(SCCc3ccccc3)c2=O)ccc1OCCN1CCCC1 [2-11]", "human MCH-1 receptor (Homo sapiens, UniProt Q99705)", "log10 IC50", 1.30],
  ["CCCC(=O)NCCOc1ccc(-n2ccnc(NCCc3ccccc3)c2=O)cc1OC [3-39]", "human MCH-1 receptor (Homo sapiens, UniProt Q99705)", "log10 IC50", 1.80],
  ["COc1cc(-n2ccnc(SCCc3ccccc3)c2=O)ccc1OC1CCN(C)C1 (stereo not shown) [6-15]", "human MCH-1 receptor (Homo sapiens, UniProt Q99705)", "log10 IC50", 1.20],
  ["COc1cccc(CCNc2nccn(-c3ccc(OCCN4CCCC4)c(OC)c3)c2=O)c1 [2-35]", "human MCH-1 receptor (Homo sapiens, UniProt Q99705)", "log10 IC50", 1.50],
  ["O=C1CCN(CCOc2ccc(-n3ccnc(NCCOc4ccccc4)c3=O)cc2)CC1 [1-40]", "human MCH-1 receptor (Homo sapiens, UniProt Q99705)", "log10 IC50", 2.40],
  ["O=c1c(NCCOc2ccccc2)nccn1-c1ccc(OCCN2CCC3(CC2)OCCO3)cc1 [1-43]", "human MCH-1 receptor (Homo sapiens, UniProt Q99705)", "log10 IC50", 2.30],
  ["O=c1c(NCCc2ccc(F)cc2)nccn1-c1ccc(OCCN2CCCC2)cc1 [2-15]", "human MCH-1 receptor (Homo sapiens, UniProt Q99705)", "log10 IC50", 1.80],
  ["O=c1c(NCCOc2ccccc2)nccn1-c1ccc(OCCN2CCCC2)cc1 [1-35]", "human MCH-1 receptor (Homo sapiens, UniProt Q99705)", "log10 IC50", 2.70],
  ["COc1cc(-n2ccnc(NCCc3ccccc3)c2=O)ccc1OCC1CCCN1C(=O)OC(C)(C)C (stereo not shown) [3-36]", "human MCH-1 receptor (Homo sapiens, UniProt Q99705)", "log10 IC50", 2.10],
  ["COC(=O)C1CCN(CCOc2ccc(-n3ccnc(NCCOc4ccccc4)c3=O)cc2)CC1 [1-42]", "human MCH-1 receptor (Homo sapiens, UniProt Q99705)", "log10 IC50", 2.20],
  ["COc1cc(-n2ccnc(NCCc3ccccc3)c2=O)ccc1OCCN1CCC(C#N)CC1 [3-51]", "human MCH-1 receptor (Homo sapiens, UniProt Q99705)", "log10 IC50", 1.60],
  ["COc1cc(-n2ccnc(SCCc3ccccc3)c2=O)ccc1OC1CCN(C(C)C)C1 (stereo not shown) [6-16]", "human MCH-1 receptor (Homo sapiens, UniProt Q99705)", "log10 IC50", 1.40],
  ["COc1cc(-n2ccnc(NCCc3ccccc3)c2=O)ccc1OCCNC(=O)c1ccncc1 [3-44]", "human MCH-1 receptor (Homo sapiens, UniProt Q99705)", "log10 IC50", 2.30],
  ["COc1cc(-n2ccnc(NCCc3ccccc3)c2=O)ccc1OCCN1CCC(C(=O)N2CCCC2)CC1 [3-55]", "human MCH-1 receptor (Homo sapiens, UniProt Q99705)", "log10 IC50", 1.40],
  ["O=c1c(NCCOc2ccccc2)nccn1-c1ccc(OCCCCN2CCCC2)cc1 [1-47]", "human MCH-1 receptor (Homo sapiens, UniProt Q99705)", "log10 IC50", 3.00],
  ["COc1cc(-n2ccnc(NCCc3ccccc3)c2=O)ccc1N1CCC(N(C)C(C)=O)C1 (stereo not shown) [3-10]", "human MCH-1 receptor (Homo sapiens, UniProt Q99705)", "log10 IC50", 1.90],
  ["COc1cc(-n2ccnc(NCCc3ccccc3)c2=O)ccc1OCCN1CCC(F)(F)CC1 [3-56]", "human MCH-1 receptor (Homo sapiens, UniProt Q99705)", "log10 IC50", 1.60],
  ["COc1cc(-n2ccnc(NCCOc3ccccc3)c2=O)ccc1N1CCC(N(C)C(=O)C2CC2)C1 (stereo not shown) [1-12]", "human MCH-1 receptor (Homo sapiens, UniProt Q99705)", "log10 IC50", 1.90],
  ["COc1cc(-n2ccnc(NCCOc3ccccc3)c2=O)ccc1OCCN1CCC(C#N)CC1 [1-71]", "human MCH-1 receptor (Homo sapiens, UniProt Q99705)", "log10 IC50", 2.00],
  ["O=c1c(NCCc2ccccc2)nccn1-c1ccc(OCCN2CCCC2)cc1 [2-02]", "human MCH-1 receptor (Homo sapiens, UniProt Q99705)", "log10 IC50", 2.10],
  ["COc1cc(-n2ccnc(NCCc3ccccc3)c2=O)ccc1OCCCN1CCC(F)CC1 [3-72]", "human MCH-1 receptor (Homo sapiens, UniProt Q99705)", "log10 IC50", 1.40],
  ["O=c1c(NCCc2ccccc2)nccn1-c1ccc(N2CCNCC2)cc1 [3-06]", "human MCH-1 receptor (Homo sapiens, UniProt Q99705)", "log10 IC50", 2.00],
  ["O=c1c(NCCCOc2ccccc2)nccn1-c1ccc(OCCN2CCCC2)cc1 [2-12]", "human MCH-1 receptor (Homo sapiens, UniProt Q99705)", "log10 IC50", 2.00],
  ["COc1cc(-n2ccnc(NCCc3ccccc3)c2=O)ccc1OCCCNC(=O)C1CC1 [3-69]", "human MCH-1 receptor (Homo sapiens, UniProt Q99705)", "log10 IC50", 2.10],
  ["COc1cc(-n2ccnc(NCCCOc3ccccc3)c2=O)ccc1OCCN(C)C(C)=O [7-03]", "human MCH-1 receptor (Homo sapiens, UniProt Q99705)", "log10 IC50", 1.50],
  ["COc1cc(-n2ccnc(NCCc3ccccc3)c2=O)ccc1N1CCCN(C)CC1 [3-19]", "human MCH-1 receptor (Homo sapiens, UniProt Q99705)", "log10 IC50", 2.10],
  ["COc1cc(-n2ccnc(NCCc3ccccc3)c2=O)ccc1OCCN1CCOC[C@@H]1C [3-60]", "human MCH-1 receptor (Homo sapiens, UniProt Q99705)", "log10 IC50", 1.80],
  ["COc1cc(-n2ccnc(NCCc3ccccc3)c2=O)ccc1OCCNC(=O)CN(C)C [3-40]", "human MCH-1 receptor (Homo sapiens, UniProt Q99705)", "log10 IC50", 1.90],
  ["C=CCc1cc(-n2ccnc(NCCOc3ccccc3)c2=O)ccc1OCCN1CCCC1 [1-49]", "human MCH-1 receptor (Homo sapiens, UniProt Q99705)", "log10 IC50", 1.50],
  ["COc1cc(-n2ccnc(NCCCOc3ccccc3)c2=O)ccc1OCCN1CCCC1 [2-13]", "human MCH-1 receptor (Homo sapiens, UniProt Q99705)", "log10 IC50", 1.20],
  ["COc1cc(-n2ccnc(NCCc3ccccc3)c2=O)ccc1OCCN1CCNC(=O)C1 [3-65]", "human MCH-1 receptor (Homo sapiens, UniProt Q99705)", "log10 IC50", 2.20],
  ["COc1cc(-n2ccnc(NCCc3ccccc3)c2=O)ccc1OCCN1CCC(C(N)=O)CC1 [3-53]", "human MCH-1 receptor (Homo sapiens, UniProt Q99705)", "log10 IC50", 1.70],
  ["O=c1c(NCCOc2ccccc2)nccn1-c1ccc(OCCN2CCC(O)C2)cc1 (stereo not shown) [1-36]", "human MCH-1 receptor (Homo sapiens, UniProt Q99705)", "log10 IC50", 2.50]
]}
